For each entry below, report its normalized growth value.
Experimental details: chemical genetic growth profiling, strain panel (AID 1159580);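 note: tested at 20 µM; growth read once vehicle control cultures reached saturation at 30 °C; 1 = growth at the plate median or of vehicle wells; lower values mean less growth of the strain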
Experimental context: S. cerevisiae deletion strains, growth OD, locus YER111C, strain swi4, hits give low values
The whole screen tested about 5,500 compounds, of which about 2,000 (36%) were called active. About 18% were inconclusive and are not listed. The list shows a part of the results.
One number for each entry.

Below are worked cases with known answers.
Compound	Result number
CCOc1cccc(C(=O)c2ccc(O)c(O)c2O)c1	0.815
CC1(C)C(=O)[C@@H]2C[C@@]3(O)C4=CC(=O)O[C@@H](c5ccoc5)[C@]4(C)CCC3[C@@](C)(C2=O)[C@H]1CC(=O)O (stereo partly specified)	1.01
O=C(NC1CCCCC1)NC1CCCCC1	0.96
CC(=O)OCC(=O)[C@@]1(O)CCC2C3CCC4=CC(=O)CC[C@]4(C)C3[C@@H](O)C[C@@]21C (stereo partly specified)	1.01
COc1cc2c(cc1OC)[C@@H]1C(=O)c3ccc4c(c3O[C@@H]1CO2)CC(C(C)C)O4 (stereo partly specified)	1.01
CC1=NN(c2ccccc2)C(=O)C1	0.989

Please give normalized growth for each item listed below.
1. CC(=O)[O][Hg][c]1ccccc1
2. O=C(O)c1cc(=O)c2cccc(O)c2[nH]1
3. NC(=O)NO
4. CN[C@@H]1[C@@H](O[C@H]2O[C@H](CO)[C@@H](N)[C@H](O)[C@H]2O)O[C@H]2C[C@@H](N)[C@H](O[C@H]3[C@H](O)[C@@H](O)[C@H](N)C[C@@H]3N)O[C@@H]2[C@@H]1O
5. CC(=O)Oc1cccc2c1C(=O)c1c(OC(C)=O)cc(C(=O)O)cc1C2=O
6. C#C[C@]1(O)CCC2C3CCC4=Cc5oncc5C[C@]4(C)C3CC[C@@]21C (stereo partly specified)
7. CC(=O)N[C@@H](Cc1c[nH]c2ccccc12)C(=O)O

Reply:
0.0727
1.01
1.03
1.01
0.963
0.978
0.971

Please give normalized growth for each item listed below.
1. COc1c2c(cc3c1OCO3)C13C=C[C@H](OC)CC1N(C2)CC3O (stereo partly specified)
2. O=C(CCc1ccc(O)cc1)c1c(O)cc(O)cc1O[C@@H]1O[C@H](CO)[C@@H](O)[C@H](O)[C@H]1O
3. O=C(CCBr)N1CCN(C(=O)CCBr)CC1

Reply:
1: 0.977; 2: 1.02; 3: 1.02

Please give normalized growth for each item listed below.
1. OC(c1cc(C(F)(F)F)nc2c(C(F)(F)F)cccc12)C1CCCCN1 (stereo unspecified)
2. NC1C[C@H]1c1ccccc1 (stereo partly specified)
3. C#CC1(O)CCC2C3CCC4=CC(=O)CCC4(C)C3CCC21C (stereo unspecified)
4. C[C@]12CCC(=O)C=C1CCC1C2[C@@H](O)C[C@@]2(C)C1CC[C@]2(O)C(=O)COC(=O)CCC(=O)O (stereo partly specified)
5. CC[C@H]1CN2CCc3cc(OC)c(OC)cc3C2C[C@@H]1CC1NCCc2cc(OC)c(OC)cc21 (stereo partly specified)
6. CC(=O)NO
7. OCc1c[nH]c2ccccc12
8. CC(=O)Oc1ccccc1C(=O)O

Reply:
[1.01, 0.959, 0.99, 1.02, 0.973, 0.965, 0.992, 0.985]

Please give normalized growth for each item listed below.
1. CC[C@@H](CO)NC(=O)[C@@H]1C=C2c3cccc4[nH]cc(c34)C[C@H]2N(C)C1
2. CC[C@H]1OC(=O)[C@H](C)[C@@H](O[C@H]2C[C@@](C)(OC)[C@@H](O)[C@H](C)O2)[C@H](C)[C@@H](O[C@@H]2O[C@H](C)C[C@H](N(C)C)[C@H]2O)[C@](C)(O)C[C@@H](C)[C@@H]2N[C@@H](COCCOC)O[C@H]([C@H]2C)[C@]1(C)O

Reply:
1. 1
2. 0.991
